test system: wheat (Triticum aestivum); assay: Test B pre-/postemergence plant response; assay type: in vivo; details: Preemergence; 16 g ai/ha; scale 0 to 100
Give Wheat plant response rating for every item shown.
No unit in the answer, please; the number alone is enough.

Param item = C#CCOC(=O)Oc1cnn(C)c(=O)c1-n1nc(-c2ccc(Cl)cc2)cc1C ; retrieve measured Wheat plant response rating.
0

Please give the result for Cc1cc(-c2ccc(Br)cc2)nn1-c1c(O)cn[nH]c1=O too.
80

Please give the result for Cc1nn(C)c(=O)c(-n2nc(-c3ccc(Br)cc3)cc2C)c1O too.
5

Please give the result for Cc1cc(-c2ccc(Cl)cc2)nn1-c1c(OC(=S)N(C)C)cnn(C)c1=O too.
0

Values from patent US20100267561A1
